experiment: MHET released, HPLC; higher = more MHET released; extreme values may be limits of the assay; conditions: PET substrate: aFilm; 60 °C; pH 5.5; 24 h
MEASURED_PARAMETER: MHET released (mM)
Numbers only, in mM.

Q: I'd like to know its MHET released. The sequence in question is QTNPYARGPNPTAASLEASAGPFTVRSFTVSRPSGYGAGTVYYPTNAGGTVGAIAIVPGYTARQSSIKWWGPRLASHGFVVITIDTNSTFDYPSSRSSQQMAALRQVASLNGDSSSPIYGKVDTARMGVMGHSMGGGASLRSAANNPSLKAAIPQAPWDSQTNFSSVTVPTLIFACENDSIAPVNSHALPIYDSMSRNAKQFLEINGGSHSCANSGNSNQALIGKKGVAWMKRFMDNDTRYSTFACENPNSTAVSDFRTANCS [DuraPETase]
A: 0

---

experiment: PET hydrolysis product formed (TPA+MHET+BHET, UV-Vis) per mg enzyme (mmol/mg enzyme); higher = more PET depolymerisation activity; extreme values may be limits of the assay; settings: PET substrate: cryPow; 60 °C; pH 5.5; 2 h
MEASURED_PARAMETER: PET hydrolysis product formed
One number for each entry.

Q: I'd like to know its PET hydrolysis product formed. The sequence in question is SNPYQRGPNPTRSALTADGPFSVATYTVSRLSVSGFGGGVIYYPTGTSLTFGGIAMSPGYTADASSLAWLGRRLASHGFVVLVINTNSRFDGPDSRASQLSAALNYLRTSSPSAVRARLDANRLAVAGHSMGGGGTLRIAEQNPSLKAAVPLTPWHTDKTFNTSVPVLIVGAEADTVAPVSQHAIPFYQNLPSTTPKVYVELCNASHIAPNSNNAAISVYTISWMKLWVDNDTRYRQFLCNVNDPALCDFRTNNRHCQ [LCC-ICCG]
A: 0.0406

---

Provide the reported BHET released of each item.
assay: BHET released, HPLC; higher = more BHET released; extreme values may be limits of the assay; details: PET substrate: cryPow; 60 °C; pH 5.5; 24 h
Include the unit right after the number.

[
  {
    "SEQUENCE_RECORD": "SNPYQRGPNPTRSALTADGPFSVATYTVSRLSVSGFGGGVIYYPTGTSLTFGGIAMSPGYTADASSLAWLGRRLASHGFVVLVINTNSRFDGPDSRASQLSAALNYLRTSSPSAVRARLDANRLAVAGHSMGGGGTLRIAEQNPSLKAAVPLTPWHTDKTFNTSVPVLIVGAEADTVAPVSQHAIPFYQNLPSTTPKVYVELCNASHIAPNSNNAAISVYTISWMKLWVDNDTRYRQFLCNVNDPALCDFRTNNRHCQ [LCC-ICCG]",
    "BHET released": "0.00462 mM"
  }
]

Could you tell me BHET released for each of these sequences? They are listed below.
1. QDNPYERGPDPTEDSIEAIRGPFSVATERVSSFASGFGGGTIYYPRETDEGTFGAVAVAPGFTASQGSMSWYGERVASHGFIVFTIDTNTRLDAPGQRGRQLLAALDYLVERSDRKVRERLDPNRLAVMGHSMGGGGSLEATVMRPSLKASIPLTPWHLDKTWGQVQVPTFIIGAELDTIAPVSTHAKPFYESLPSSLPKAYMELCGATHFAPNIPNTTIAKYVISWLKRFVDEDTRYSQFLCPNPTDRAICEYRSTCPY [Cut190*SS]
2. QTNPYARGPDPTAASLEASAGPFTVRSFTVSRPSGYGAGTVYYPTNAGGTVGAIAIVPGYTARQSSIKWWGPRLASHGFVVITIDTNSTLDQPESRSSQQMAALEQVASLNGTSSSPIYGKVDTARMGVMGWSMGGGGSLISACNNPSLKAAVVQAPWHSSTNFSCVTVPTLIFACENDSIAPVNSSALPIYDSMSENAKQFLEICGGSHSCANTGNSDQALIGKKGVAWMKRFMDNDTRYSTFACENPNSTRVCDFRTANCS [Z1-PETase]
3. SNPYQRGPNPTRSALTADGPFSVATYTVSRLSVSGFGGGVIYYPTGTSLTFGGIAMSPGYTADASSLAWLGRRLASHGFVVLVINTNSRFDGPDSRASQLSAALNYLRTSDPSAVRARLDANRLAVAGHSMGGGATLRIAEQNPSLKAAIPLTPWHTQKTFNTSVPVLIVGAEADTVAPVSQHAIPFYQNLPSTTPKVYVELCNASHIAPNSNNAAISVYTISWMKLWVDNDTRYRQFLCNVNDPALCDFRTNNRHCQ [LCC-ICCG DAQI]
4. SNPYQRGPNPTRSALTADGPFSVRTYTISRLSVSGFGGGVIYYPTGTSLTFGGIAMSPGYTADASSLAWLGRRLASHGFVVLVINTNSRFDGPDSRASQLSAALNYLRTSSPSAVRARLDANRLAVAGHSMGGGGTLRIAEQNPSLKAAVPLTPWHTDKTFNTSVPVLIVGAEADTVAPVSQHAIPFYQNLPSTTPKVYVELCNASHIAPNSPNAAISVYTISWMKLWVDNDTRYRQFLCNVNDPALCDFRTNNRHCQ [LCC-ICCG RIP]
5. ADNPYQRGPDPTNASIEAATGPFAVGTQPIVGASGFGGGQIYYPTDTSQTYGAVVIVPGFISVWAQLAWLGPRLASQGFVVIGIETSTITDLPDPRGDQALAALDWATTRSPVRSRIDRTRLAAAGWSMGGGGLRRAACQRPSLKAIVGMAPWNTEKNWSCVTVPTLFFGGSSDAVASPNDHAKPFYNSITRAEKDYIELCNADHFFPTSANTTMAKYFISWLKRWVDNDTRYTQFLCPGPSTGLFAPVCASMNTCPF [CaPETaseM9]

A:
1: 0.00623 mM; 2: 0 mM; 3: 0.00665 mM; 4: 0 mM; 5: 0 mM

---

Provide the reported PET hydrolysis product formed of each item.
experiment: PET hydrolysis product formed (TPA+MHET+BHET, UV-Vis) per mg enzyme (mmol/mg enzyme); higher = more PET depolymerisation activity; extreme values may be limits of the assay; settings: PET substrate: cryPow; 70 °C; pH 9.5; 2 h
One number for each entry.

[
  {
    "SEQUENCE_RECORD": "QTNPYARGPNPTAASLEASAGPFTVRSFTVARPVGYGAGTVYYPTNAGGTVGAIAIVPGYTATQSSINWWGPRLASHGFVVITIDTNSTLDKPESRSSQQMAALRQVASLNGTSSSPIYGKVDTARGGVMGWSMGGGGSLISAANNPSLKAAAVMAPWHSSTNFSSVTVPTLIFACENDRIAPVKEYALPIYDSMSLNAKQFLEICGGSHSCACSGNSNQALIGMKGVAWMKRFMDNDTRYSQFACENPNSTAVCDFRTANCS [HotPETase]",
    "PET hydrolysis product formed": 0.0796
  },
  {
    "SEQUENCE_RECORD": "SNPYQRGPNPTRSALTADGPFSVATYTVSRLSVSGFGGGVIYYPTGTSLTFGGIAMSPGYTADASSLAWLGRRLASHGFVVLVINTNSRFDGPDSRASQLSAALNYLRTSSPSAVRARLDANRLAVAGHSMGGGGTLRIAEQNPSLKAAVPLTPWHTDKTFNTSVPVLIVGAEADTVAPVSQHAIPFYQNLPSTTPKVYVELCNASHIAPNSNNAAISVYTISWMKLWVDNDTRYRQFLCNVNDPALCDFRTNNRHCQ [LCC-ICCG]",
    "PET hydrolysis product formed": 0.0357
  },
  {
    "SEQUENCE_RECORD": "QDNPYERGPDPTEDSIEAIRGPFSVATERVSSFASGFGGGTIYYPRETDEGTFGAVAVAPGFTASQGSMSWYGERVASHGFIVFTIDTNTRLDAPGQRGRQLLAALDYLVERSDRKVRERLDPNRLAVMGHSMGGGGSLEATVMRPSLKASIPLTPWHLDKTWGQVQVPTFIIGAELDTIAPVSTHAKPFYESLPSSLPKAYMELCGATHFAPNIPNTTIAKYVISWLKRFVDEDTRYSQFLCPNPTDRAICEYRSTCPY [Cut190*SS]",
    "PET hydrolysis product formed": 0.00521
  }
]

Could you tell me PET hydrolysis product formed for each of these sequences? They are listed below.
1. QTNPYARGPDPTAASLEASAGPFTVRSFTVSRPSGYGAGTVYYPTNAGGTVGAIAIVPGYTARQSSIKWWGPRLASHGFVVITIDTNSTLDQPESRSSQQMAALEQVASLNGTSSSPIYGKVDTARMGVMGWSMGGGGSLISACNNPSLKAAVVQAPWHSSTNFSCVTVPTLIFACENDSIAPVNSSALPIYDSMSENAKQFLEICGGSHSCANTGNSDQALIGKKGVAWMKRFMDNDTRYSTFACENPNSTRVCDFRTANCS [Z1-PETase]
2. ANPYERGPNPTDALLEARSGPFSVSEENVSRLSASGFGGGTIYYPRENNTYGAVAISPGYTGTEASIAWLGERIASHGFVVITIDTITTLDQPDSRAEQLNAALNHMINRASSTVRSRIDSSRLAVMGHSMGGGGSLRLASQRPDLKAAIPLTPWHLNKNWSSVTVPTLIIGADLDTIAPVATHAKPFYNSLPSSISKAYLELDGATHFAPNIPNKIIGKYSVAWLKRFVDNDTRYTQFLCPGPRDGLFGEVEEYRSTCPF [TfCut2]

A:
[0.0657, 0]

Q: I'd like to know its PET hydrolysis product formed. The sequence in question is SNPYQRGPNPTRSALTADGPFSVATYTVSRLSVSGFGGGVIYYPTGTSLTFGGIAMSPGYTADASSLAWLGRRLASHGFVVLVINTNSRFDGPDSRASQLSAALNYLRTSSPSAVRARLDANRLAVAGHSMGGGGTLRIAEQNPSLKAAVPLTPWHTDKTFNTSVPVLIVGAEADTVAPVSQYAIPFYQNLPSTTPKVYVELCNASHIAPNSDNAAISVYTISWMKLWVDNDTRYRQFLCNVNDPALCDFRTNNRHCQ [LCC-A2]
A: 0.0859
